Below are Ki values measured for memapsin 2 (Homo sapiens).

CC(C)CNC(=O)C(NC(=O)C(C)CC(O)C(CC(C)C)NC(=O)c1cccc(C(=O)N(C)Cc2ccccn2)c1)C(C)C (centres unmarked) :: 0.405 to 2 µM
CCCN(CCC)C(=O)c1cccc(C(=O)NC(Cc2cc(F)cc(F)c2)C(O)CC(C)C(=O)NCC(C)C)c1 (centres unmarked) :: < 0.405 µM
COc1ccc(C[C@H](NC(=O)c2cccc(C(=O)NCc3nc(C)cs3)c2)[C@@H](O)C[C@@H](C)C(=O)N[C@H](C(=O)NCC(C)C)C(C)C)cc1 :: 2 to 5 µM
CC(=O)N(C)c1cc(C(=O)NC(C)c2ccccc2)cc(C(=O)NC(CC(C)C)C(O)CC(C)C(=O)NC(C(=O)NCC(C)C)C(C)C)c1 (centres unmarked) :: < 0.405 µM
CC(C)CNC(=O)C(NC(=O)C(C)CC(O)C(CC(C)C)NC(=O)c1cc(C(=O)NC(C)c2ccccc2)cc(N(C)C(=O)OC2CCOC2)c1)C(C)C (centres unmarked) :: 0.405 to 2 µM
CC(C)CC(NC(=O)c1cc(C(=O)NC(C)c2ccccc2)cc(N(C)S(C)(=O)=O)c1)C(O)CC(C)C(=O)NCc1ccccc1 (centres unmarked) :: 2 to 5 µM
CC(C)CNC(=O)C(NC(=O)C(C)CC(O)C(CC(C)C)NC(=O)c1cccc(C(=O)N(C)Cc2cccc(O)c2)c1)C(C)C (centres unmarked) :: 0.405 to 2 µM
CC(C)CNC(=O)C(NC(=O)C(C)CC(O)C(CC(C)C)NC(=O)c1cc(F)cc(C(=O)NC(C)c2ccccc2)c1)C(C)C (centres unmarked) :: 0.405 to 2 µM

Task: If you can, please state the reported Ki value of CC(C)CNC(=O)C(NC(=O)C(C)CC(O)C(CC(C)C)NC(=O)c1cc(C(=O)N(C)Cc2ccccn2)cc(N(C)S(C)(=O)=O)c1)C(C)C (centres unmarked) .
Result: < 0.405 µM

Task: If you can, please state the reported Ki value of Cc1nc(C(C)NC(=O)c2cc(C(=O)NC(CC(C)C)C(O)CC(C)C(=O)NC(C(=O)NC(C)C)C(C)C)cc(N(C)S(C)(=O)=O)c2)c(C)o1 (centres unmarked) .
Result: < 0.405 µM

Task: Look up Ki: CCCN(Cc1nc(C)cs1)C(=O)c1cccc(C(=O)NC(CC(C)C)C(O)CC(C)C(=O)NC(C(=O)NCC(C)C)C(C)C)c1 (centres unmarked)
Result: < 0.405 µM

Task: Request the reported Ki associated with CC(C)CC(NC(=O)c1cc(C(=O)NC(CO)c2ccccc2)cc(N(C)S(C)(=O)=O)c1)C(O)CC(C)C(=O)NC(C(=O)NC(C)C)C(C)C (centres unmarked)
Result: 0.405 to 2 µM

Task: Please give the measured Ki for this compound: CCc1csc(CNC(=O)c2cc(C(=O)NC(CC(C)C)C(O)CC(C)C(=O)NC(C(=O)NCC(C)C)C(C)C)cc(N(C)S(C)(=O)=O)c2)n1 (centres unmarked)
Result: < 0.405 µM

Task: What value of Ki has been reported for the following compound? CNS(=O)(=O)c1cc(C(=O)NC(C)c2ccccc2)cc(C(=O)NC(CC(C)C)C(O)CC(C)C(=O)NC(C(=O)NCC(C)C)C(C)C)c1 (centres unmarked)
Result: < 0.405 µM

Task: Recorded Ki for CC(C)CNC(=O)C(NC(=O)C(C)CC(O)C(CC(C)C)NC(=O)c1cc(C(=O)N(C)C(C)c2ccccc2)cc(N(C)S(C)(=O)=O)c1)C(C)C (centres unmarked) , please?
Result: 0.405 to 2 µM

Task: Quick one: Ki for CCCN(CCC)C(=O)c1cc(NC(=O)OC(C)(C)C)cc(C(=O)NC(CC(C)C)C(O)CC(OC)C(=O)NC(C(=O)NC(C)C)C(C)C)c1 (centres unmarked) ?
Result: > 5 µM

Task: Would you mind telling me what Ki value was observed for CCN(Cc1ccncc1)C(=O)c1cc(C)cc(C(=O)NC(CC(C)C)C(O)CC(C)C(=O)NC(C(=O)NCC(C)C)C(C)C)c1 (centres unmarked) ?
Result: 0.405 to 2 µM

Task: // returns reported Ki for input COc1cccc(CNC(=O)C(C)CC(O)C(CC(C)C)NC(=O)c2cc(C(=O)NC(C)c3ccccc3)cc(N(C)S(C)(=O)=O)c2)c1 (centres unmarked)
Result: > 5 µM
